system: A375; test: Compounds cellular killing in A375; format: cell-based, human; conditions: Homo sapiens, A-375; A375, 6 days, Cell Titer-Glo
Hi! Could you tag entries with EC50 below 0.8 nM as TRUE, and those at or above as FALSE? Much appreciated.

Before answering, review these 2 worked examples.
| compound | assigned-category |
| --- | --- |
| CC[C@@]1(O)C(=O)OCc2c1cc1n(c2=O)Cc2c-1nc1cc(F)c(C)c3c1c2[C@@H](NC(=O)c1ccc(CO)o1)CC3 | FALSE |
| CC[C@@]1(O)C(=O)OCc2c1cc1n(c2=O)Cc2c-1nc1cc(Cl)cc3c1c2[C@@H](N)CC3 | FALSE |

Input: Below 0.8 nM on EC50? Entry CC[C@@]1(O)C(=O)OCc2c1cc1n(c2=O)Cc2c-1nc1cc(F)c(C)c3c1c2C(CCO)CC3 (stereo partly shown)
Output: TRUE

Input: Would you kindly verify if EC50 of CC[C@@]1(O)C(=O)OCc2c1cc1n(c2=O)Cc2c-1nc1cc(F)c(C)c3c1c2C(CCCO)CC3 (stereo partly shown) is strictly less than 0.8 nM?
Output: TRUE

Input: Regarding CC[C@@]1(O)C(=O)OCc2c1cc1n(c2=O)Cc2c-1nc1cc3c(c4c1c2[C@@H](N)CC4)OCO3 , kindly confirm whether its EC50 is beneath 0.8 nM.
Output: TRUE

Input: Strictly below 0.8 nM in EC50? CCc1c2c(nc3ccc(O)cc13)-c1cc3c(c(=O)n1C2)COC(=O)[C@]3(O)CC [Example 1-C, reference compound]
Output: FALSE

====

Reported pEC50 values for the following compounds.
tested on: Calu-6; assay: Compounds cellular killing in Calu-6; assay type: cell-based, human; conditions: Calu-6, 6 days, Cell Titer-Glo
// pEC50: -log10(molar conc.)

Here are 4 compounds together with their reported answers.
| compound | pEC50 |
| --- | --- |
| CC[C@@]1(O)C(=O)OCc2c1cc1n(c2=O)Cc2c-1nc1cc(F)c(C)c3c1c2[C@@H](NC(=O)C1CCCC1O)CC3 (single isomer, unassigned) [Example 2-9] | 9.15 |
| CC[C@@]1(O)C(=O)OCc2c1cc1n(c2=O)Cc2c-1nc1cc(F)c(C)c3c1c2[C@@H](NC(=O)C1CCCC1O)CC3 (single isomer, unassigned) [Example 2-10] | 9.70 |
| CC[C@@]1(O)C(=O)OCc2c1cc1n(c2=O)Cc2c-1nc1cc3c(c4c1c2C(CCCO)CC4)OCO3 (single isomer, unassigned) | 9.70 |
| CC[C@@]1(O)C(=O)OCc2c1cc1n(c2=O)Cc2c-1nc1cc(F)c(C)c3c1c2C(N1CCC1CO)CC3 (single isomer, unassigned) | 9.15 |

Let us examine a further case.
Input: Provide pEC50, system Calu-6, entry CC[C@@]1(O)C(=O)OCc2c1cc1n(c2=O)Cc2c-1nc1cc(F)c(C)c3c1c2[C@@H](N1CCC1CO)CC3 (single isomer, unassigned)
Output: 9.70

====

test system: MDA-MB-453; assay: Compounds cellular killing in MDA-MB-453; assay type: cell-based, human; settings: Homo sapiens; MDA-MB-453, 6 days, Cell Titer-Glo; read-out: EC50
readout-name: pEC50
// pEC50 here means minus log10 of the molar concentration (mol/L)

Input: Give the measured pEC50 for CC[C@@]1(O)C(=O)OCc2c1cc1n(c2=O)Cc2c-1nc1cc(F)c(C)c3c1c2[C@@H](N)CC3 [Example 1-B, reference compound]
Output: 9.05

====

This section presents compounds with their documented Emax values.
system: A375; test: Compounds cellular killing in A375; type: cell-based, human; settings: Homo sapiens, A-375, […], A375, 6 days, Cell Titer-Glo
Structures can show the parent of a compound that is named as a salt.
Numbers only here, please. The scale is %.

Observe how each entry below is paired with its result.
| compound | Emax (%) |
| --- | --- |
| CC[C@@]1(O)C(=O)OCc2c1cc1n(c2=O)Cc2c-1nc1cc(O)cc3c1c2[C@@H](NC(=O)CO)CC3 | 93.7 |
| CC[C@@]1(O)C(=O)OCc2c1cc1n(c2=O)Cc2c-1nc1cc(F)c(C)c3c1c2[C@@H](NC(=O)C(O)(C(F)(F)F)C(F)(F)F)CC3 | 98.3 |

Input: Please give measured Emax of the following entry: CC[C@@]1(O)C(=O)OCc2c1cc1n(c2=O)Cc2c-1nc1cc(F)c(Cl)c3c1c2[C@@H](N)CC3 [Example 1-26, 2,2,2-trifluoroacetate salt]
Output: 98.1

Input: Give a short answer stating reported Emax for CC[C@@]1(O)C(=O)OCc2c1cc1n(c2=O)Cc2c-1nc1cc(F)c(C)c3c1c2[C@@H](n1cc(CCCO)nn1)CC3 .
Output: 99.9

Input: Identify measured Emax corresponding to CC[C@@]1(O)C(=O)OCc2c1cc1n(c2=O)Cc2c-1nc1cc(F)c(C)c3c1c2[C@@H](NC(=O)C1CCC1CO)CC3 (stereo partly shown)
Output: 99.9

Input: Identify Emax associated with the compound CC[C@@]1(O)C(=O)OCc2c1cc1n(c2=O)Cc2c-1nc1cc(Cl)c(C)c3c1c2[C@@H](NC(=O)CO)CC3
Output: 99.1

Input: Answer with reported Emax of CC[C@@]1(O)C(=O)OCc2c1cc1n(c2=O)Cc2c-1nc1cc(F)c(C)c3c1c2[C@@H](N1CCCC1CO)CC3 (single isomer, unassigned)
Output: 99.9

Input: Read the entry CC[C@@]1(O)C(=O)OCc2c1cc1n(c2=O)Cc2c-1nc1cc(F)c(C)c3c1c2C(CCCCO)CC3 (stereo partly shown) and write its reported Emax.
Output: 99.5

Input: Indicate the recorded Emax value for this compound: CC[C@@]1(O)C(=O)OCc2c1cc1n(c2=O)Cc2c-1nc1cc(F)c(C)c3c1c2C(CNCCCO)CC3 (stereo partly shown)
Output: 99.8

Input: Please report the measured Emax for CC[C@@]1(O)C(=O)OCc2c1cc1n(c2=O)Cc2c-1nc1cc(F)c(OC)c3c1c2[C@@H](NC(=O)CO)CC3
Output: 99.3

Input: Return reported Emax. Input compound: CC[C@@]1(O)C(=O)OCc2c1cc1n(c2=O)Cc2c-1nc1cc(Cl)c(C)c3c1c2[C@@H](NC(=O)C(C)(F)CO)CC3 (stereo partly shown)
Output: 99.9

Input: State its Emax: CC[C@@]1(O)C(=O)OCc2c1cc1n(c2=O)Cc2c-1nc1cc(O)cc3c1c2C(NC(C)=O)CC3 (stereo partly shown)
Output: 99.9

Input: State, in one line, measured Emax of CC[C@@]1(O)C(=O)OCc2c1cc1n(c2=O)Cc2c-1nc1cc(F)c(C)c3c1c2[C@@H](n1cc(CCO)nn1)CC3
Output: 99.9

====

Test system: A375
Test: Compounds cellular killing in A375
Type: cell-based, human
Conditions: Homo sapiens, A-375, […], A375, 6 days, Cell Titer-Glo
Method: Seeding cells A375 (1E3/well) or Calu-6 (2E3/well) into 96-well plate (Greiner: 655090), 100 ul/well. Incubation at 37° C., 5% CO2, overnight. Adding the fresh growth-medium containing the varying concentrations of compounds, 50 ul/well. Incubation at 37° C., 5% CO2, 6 days. The cell viability detected by Cell Titer-Glo (Promega, G7573). Add 70 µL/well of CellTiter-Glo® Reagent in each well. […] Analyze with Microplate Reader. […]
readout-name: Emax (%)
Please respond with the number in % and leave the unit unwritten.

| compound | Emax (%) |
| --- | --- |
| CC[C@@]1(O)C(=O)OCc2c1cc1n(c2=O)Cc2c-1nc1cc(F)c(C)c3c1c2C(C(=O)NCCO)CC3 (single isomer, unassigned) [Example 2-52] | 98.9 |
| CC[C@@]1(O)C(=O)OCc2c1cc1n(c2=O)Cc2c-1nc1cc(Cl)c(C)c3c1c2[C@@H](NC(=O)C(C)(C)CO)CC3 [Example 2-8] | 98.6 |
| CC[C@@]1(O)C(=O)OCc2c1cc1n(c2=O)Cc2c-1nc1cc(F)c(C)c3c1c2[C@@H](NC(=O)C(C)(F)CO)CC3 (stereo partly shown) [Example 2-41] | 99.9 |
| CC[C@@]1(O)C(=O)OCc2c1cc1n(c2=O)Cc2c-1nc1cc(F)c(F)c3c1c2[C@@H](NC(=O)CO)CC3 [Example 2-30] | 98.9 |
| CC[C@@]1(O)C(=O)OCc2c1cc1n(c2=O)Cc2c-1nc1cc(F)c(C)c3c1c2C(CN(C)CCO)CC3 (stereo partly shown) [Example 2-54] | 100 |
| CC[C@@]1(O)C(=O)OCc2c1cc1n(c2=O)Cc2c-1nc1cc(F)c(C)c3c1c2[C@@H](n1cc(CO)nn1)CC3 [Example 2-22] | 97.7 |

Input: Supply Emax value. Item: CC[C@@]1(O)C(=O)OCc2c1cc1n(c2=O)Cc2c-1nc1ccc(F)c3c1c2[C@@H](N)CC3 [Example 1-12]
Output: 99.8

Input: Provide only the value of recorded Emax for CC[C@@]1(O)C(=O)OCc2c1cc1n(c2=O)Cc2c-1nc1cc(F)cc3c1c2[C@@H](N)CC3 [Example 1-22, methanesulfonate]
Output: 100

Input: For CC[C@@]1(O)C(=O)OCc2c1cc1n(c2=O)Cc2c-1nc1cc(Cl)c(C)c3c1c2[C@@H](N)CC3 [Example 1-8] , write its Emax.
Output: 98.8

Input: Input CC[C@@]1(O)C(=O)OCc2c1cc1n(c2=O)Cc2c-1nc1cc(F)c(C)c3c1c2[C@@H](NC(=O)CO)CC3 [Example 1-A, reference compound] , output reported Emax.
Output: 98.9

Input: Consider the compound CC[C@@]1(O)C(=O)OCc2c1cc1n(c2=O)Cc2c-1nc1cc3c(c4c1c2[C@@H](NC(=O)CO)CC4)OC(F)(F)O3 [Example 2-27] and give its recorded Emax.
Output: 99.5

Input: Supply recorded Emax for CC[C@@]1(O)C(=O)OCc2c1cc1n(c2=O)Cc2c-1nc1cc(F)c(C)c3c1c2[C@@H](NC(=O)[C@@H]1C[C@H](O)CN1C(C)=O)CC3 [Example 2-38] here.
Output: 98.7

Input: Provide one value: measured Emax of CC[C@@]1(O)C(=O)OCc2c1cc1n(c2=O)Cc2c-1nc1cc(F)c(C)c3c1c2C(C(=O)N1CCC1CO)CC3 (stereo partly shown) [Example 2-47]
Output: 99.7

Input: Tell me measured Emax for CC[C@@]1(O)C(=O)OCc2c1cc1n(c2=O)Cc2c-1nc1cc(OC)cc3c1c2[C@@H](NC(=O)CO)CC3 [Example 2-28] please.
Output: 98.8

Input: Retrieve Emax measured for CC[C@@]1(O)C(=O)OCc2c1cc1n(c2=O)Cc2c-1nc1cc(F)c(C)c3c1c2[C@@H](NC(=O)CC(O)C[N+](C)(C)C)CC3 (stereo partly shown) [Example 2-16] and print it.
Output: 77.1

Input: State its Emax: CC[C@@]1(O)C(=O)OCc2c1cc1n(c2=O)Cc2c-1nc1cc(F)c(C)c3c1c2[C@@H](NC(=O)C(F)(F)CO)CC3 [Example 2-3]
Output: 100

Input: Please list Emax recorded for the compound CC[C@@]1(O)C(=O)OCc2c1cc1n(c2=O)Cc2c-1nc1cc(F)c(O)c3c1c2[C@@H](N)CC3 [Example 1-3, methanesulfonate]
Output: 98.4

Input: Give Emax for the following compound: CC[C@@]1(O)C(=O)OCc2c1cc1n(c2=O)Cc2c-1nc1cc(F)c(C)c3c1c2[C@@H](NC(=O)[C@@H]1C[C@@H](O)CN1C)CC3 [Example 2-36]
Output: 97.8

Input: Supply recorded Emax for CC[C@@]1(O)C(=O)OCc2c1cc1n(c2=O)Cc2c-1nc1cc(F)c(C)c3c1c2[C@@H](NC(=O)[C@@H]1C[C@H](O)CN1C)CC3 [Example 2-37] here.
Output: 99.9

Input: Respond only with Emax recorded for CC[C@@]1(O)C(=O)OCc2c1cc1n(c2=O)Cc2c-1nc1cc(F)c(C)c3c1c2[C@@H](NC(=O)C[C@@H](O)C[N+](C)(C)C)CC3 [Example 2-15]
Output: 73.5

Input: Give the value of Emax reported for the following: CC[C@@]1(O)C(=O)OCc2c1cc1n(c2=O)Cc2c-1nc1cc(F)c(C)c3c1c2C(N1CCC1CO)CC3 (single isomer, unassigned) [Example 2-57]
Output: 100

Input: Please report Emax for the following compound: CC[C@@]1(O)C(=O)OCc2c1cc1n(c2=O)Cc2c-1nc1cc(F)c(C)c3c1c2C(CNCCO)CC3 (stereo partly shown) [Example 2-53]
Output: 99.9

Input: Check the records and state Emax for CC[C@@]1(O)C(=O)OCc2c1cc1n(c2=O)Cc2c-1nc1cc(Cl)cc3c1c2[C@@H](NC(=O)CO)CC3 [Example 2-12]
Output: 99.9

Input: In one line, give reported Emax of the entry CC[C@@]1(O)C(=O)OCc2c1cc1n(c2=O)Cc2c-1nc1cc(F)c(C)c3c1c2[C@@H](NC(=O)C[C@H](O)CC#N)CC3 [Example 2-20] .
Output: 98

Input: Give the reported Emax for this compound. CC[C@@]1(O)C(=O)OCc2c1cc1n(c2=O)Cc2c-1nc1cc(F)cc3c1c2[C@@H](NC(=O)C(C)(C)CO)CC3 [Example 2-43]
Output: 100
